Can you tell me p-STAT5 inhibition (%), IL-7 induced, HPB-ALL T cells, flow cytometry for the items I'm about to list?
Target: T1, human γc on cells (KHYG-1, Ramos, HPB-ALL, Jurkat, PBMC) (human) (UniProt P31785)
T1 sequence (looked up): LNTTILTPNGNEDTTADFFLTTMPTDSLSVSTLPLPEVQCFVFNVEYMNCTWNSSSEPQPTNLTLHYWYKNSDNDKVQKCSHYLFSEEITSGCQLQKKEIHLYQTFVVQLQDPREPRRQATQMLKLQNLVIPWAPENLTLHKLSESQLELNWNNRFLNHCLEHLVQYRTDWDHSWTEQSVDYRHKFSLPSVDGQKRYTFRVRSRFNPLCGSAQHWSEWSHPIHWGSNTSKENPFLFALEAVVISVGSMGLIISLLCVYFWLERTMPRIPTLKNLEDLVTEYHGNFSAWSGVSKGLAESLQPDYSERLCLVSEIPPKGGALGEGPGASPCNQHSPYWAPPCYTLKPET
Assay: cell-based or functional assay
One number for each entry, in %.

SM-05J anti-γc ScFv (scFv, part only; not given: linker and E-tag, not shown: small tags and cut ends) scFv (part 1 of 2), part: EVQLQQSGPELVKPGASVKISCKTSGYTFTEYTMHWVKQSHGKSLEWIGGIDPYNGGITYNQRFKGKATLTVDKSSSTAYMELRSLTSEDSAVYYCARRRLYYGYALDYWGQGTSVTVSS scFv (part 2 of 2), part: DVVMTQTPLSLPVSLGDQASISCRSSQSIVHSNGNTYLEWYLQKPGQSPKLLIYKVSNRFSGVPDRFSGSGSGTDFTLKISRVEAEDLGVYYCFQGSHVPFTFGSGTKLEIKR :: 98.1
SM-05A anti-γc ScFv (scFv, part only; not given: linker and E-tag, not shown: small tags and cut ends) scFv (part 1 of 2), part: EVQLQQSGPELVKPGASVKISCKTSGYTFTEYTMHWVKQSHGKSLEWIGGIDPYNGGATYNQRFKGKATLTVDKSSSTAYMEFRSLTSEDSAVYYCARRRLYYGNALDYWGQGTSVTVSS scFv (part 2 of 2), part: DVLMTQTPLSLPVSLGDQASISCRSSQSLVHSNGNTYLHWYLQRPGQSPKLLIYKVSSRFSGVPDRFSGSGSGTDFTLKISRVEAEDLGVYFCSQTTHVPFTFGSGTKLEIKR :: 100
SM-05F anti-γc ScFv (scFv, part only; not given: linker and E-tag, not shown: small tags and cut ends) scFv (part 1 of 2), part: EVQLQQSGPELVKPGASVKIFCKTSGYTFTEYTMHWVKQSHGESLEWIGGIDPNTGGVTYNQKFKGKATLTADKSSSTAYMELRSLTSEDSAVYYCARRRRYYGYALDYWGQGTSVTVSS scFv (part 2 of 2), part: DVLMTQTPLSLPVSLGDQASISCRSSQSIVHNNGNTYLEWYLQKPGQSPKLLIYKVSNRFFGVPDRFSGSGSGTYFTLKISRVEAEDLGVYYCFQGSHVPWTFGGGTKLEIKR :: 99.4
SM-05H anti-γc ScFv (scFv, part only; not given: linker and E-tag, not shown: small tags and cut ends) scFv (part 1 of 2), part: QVQLQQSGPELVKPGASMNIFCKTSGYTFTEYTMHWVKQSHGESLEWIGGIDPNTGGATYNQKFKGQATLTADKSSSTAYMELRSLTSEDSAVYYCARRRRYYGYALDYWGQGTSVTVSS scFv (part 2 of 2), part: DVLMTQTPLSLPVSLGDQASISCRSSQNIIHSNGNTYLEWYLQKPGQSPKLLIYKVSNRFSGVPDRFTGSGSGTDFTLKISRVEAEDLGVYFCSQSTHVPFTFGGGTKLEIKR :: 100
SM-05E anti-γc ScFv (scFv, part only; not given: linker and E-tag, not shown: small tags and cut ends) scFv (part 1 of 2), part: EVHLQQSGPELVKPGASVKIFCKTSGYTFTEYTMHWVKQSHGESLEWIGGIDPNTGGVTYNQKFKGKATLTADKSSSTAYMELRSLTSEDSAVYYCARRRRYYGYALDYWGQGTSVTVSS scFv (part 2 of 2), part: DVLMTQTPLSLPVSLGDQASISCRSSQSIVHSNGNTYLEWYLQKPGQSPKLLIYKVSNRFSGVPDRFSGSGSGTDFTLKISSVEAEDLGVYFCSQSTHVPFMFGSGTKLEIKR :: 98.3

For the next question, use this binder.
Which measured p-STAT5 inhibition (%), IL-7 induced, HPB-ALL T cells, flow cytometry value corresponds to SM-05B anti-γc ScFv (scFv, part only; not given: linker and E-tag, not shown: small tags and cut ends) scFv (part 1 of 2), part: QVQLQQSGPELVKPGASVKIFCKTSGYTFTEYTMHWVKQSHGESLEWIGGIDPNTGGATYNQKFKGKATLTADKSSSTAYMELRSLTSEDSAVYYCARRRRYYGYALDYWGQGTSVTVSS scFv (part 2 of 2), part: DVLMTQTPLSLPVSLGDQASISCRSSQSIVHSNGNTYLEWYLQKPGQSPKLLIYKVSNRFSGVPDRFSGSGSGTDFTLKISRVEAEDLGVYFCSQSTHVPWTFGGGTKLEIKR ?
94.5

Data origin, for the record: patent US20260209365A1
